experiment: Drug uptake in Kunming mouse plasma at 15 mg/kg, ig measured after 2 hrs by LC/MS/MS analysis; assay type: ADME, organism-based; conditions: po
parameter measured: concentration at 2 h (ng/mL)
Answer with a number only, understood to be in ng/mL.

May I ask what concentration at 2 h has been recorded for Cc1cc(N2CCc3sccc3C2)cc(C)c1NC(=O)CC(C)(C)C ?
52.9

----------
assay: Drug uptake in Kunming mouse plasma at 15 mg/kg, ig measured after 30 mins by LC/MS/MS analysis; format: ADME, organism-based; conditions: po
parameter measured: concentration at 0.5 h (µg/mL)
Answer with a number only, understood to be in µg/mL.

May I ask what concentration at 0.5 h has been recorded for Cc1cc(N2CCc3sccc3C2)cc(C)c1NC(=O)CC(C)(C)C ?
0.243

----------
test: Drug uptake in Kunming mouse plasma at 1.5 mg/kg, iv measured after 2 hrs by LC/MS/MS analysis; type: ADME, organism-based
parameter measured: concentration at 2 h (ng/mL)
Answer with a number only, understood to be in ng/mL.

May I ask what concentration at 2 h has been recorded for Cc1cc(N2CCc3sccc3C2)cc(C)c1NC(=O)CC(C)(C)C ?
7.85

----------
assay: Ratio of drug uptake in Kunming mouse brain to plasma at 1.5 mg/kg, iv measured after 5 mins by LC/MS/MS analysis; assay type: ADME, organism-based; details: read-out: BPR
parameter measured: Kp at 5 min
# output: bare number, no unit

May I ask what Kp at 5 min has been recorded for Cc1cc(N2CCc3sccc3C2)cc(C)c1NC(=O)CC(C)(C)C ?
0.18

----------
assay: Ratio of drug uptake in Kunming mouse brain to plasma at 15 mg/kg, ig measured after 30 mins by LC/MS/MS analysis; assay type: ADME, organism-based; conditions: po, read-out: BPR
parameter measured: Kp at 0.5 h
# output: bare number, no unit

May I ask what Kp at 0.5 h has been recorded for Cc1cc(N2CCc3sccc3C2)cc(C)c1NC(=O)CC(C)(C)C ?
0.12

----------
assay: Tmax in Sprague-Dawley rat at 1 mg/kg, iv by LC/MS/MS analysis; type: ADME, organism-based; conditions: in vivo
parameter measured: Tmax (min)
Answer with a number only, understood to be in min.

May I ask what Tmax has been recorded for Cc1cc(N2CCc3sccc3C2)cc(C)c1NC(=O)CC(C)(C)C ?
1.8

----------
Answer each item with its documented log10 of EC50.
molecular target: UniProt:O43526; assay: Channel opening activity at KCNQ2 (unknown origin) expressed in CHO cells after 10 mins by atomic absorption spectrophotometry-based Rb+ flow assay
// units: nM (pre-log); metric: EC50; scale: log10

May I ask what log10 of EC50 has been recorded for Cc1cc2c(s1)CN(c1cc(C)c(NC(=O)CC(C)(C)C)c(C)c1)CC2 ?
1.48

May I ask what log10 of EC50 has been recorded for Cc1csc2c1CN(c1cc(C)c(NC(=O)CC(C)(C)C)c(C)c1)CC2 ?
2.48

May I ask what log10 of EC50 has been recorded for Cc1cc(N2CCc3sccc3C2)cc(C)c1NC(=O)CC(C)(C)C ?
1.30

May I ask what log10 of EC50 has been recorded for Cc1cc(N2CCc3cc(F)sc3C2)cc(C)c1NC(=O)CC(C)(C)C ?
3.47

May I ask what log10 of EC50 has been recorded for Cc1cc(N2CCCCc3cc(F)ccc32)cc(C)c1NC(=O)CC(C)(C)C ?
2.40

----------
assay: MRTlast in Sprague-Dawley rat at 1 mg/kg, iv by LC/MS/MS analysis; assay type: ADME, organism-based; details: in vivo
parameter measured: MRT last (h)
Answer with a number only, understood to be in h.

May I ask what MRT last has been recorded for Cc1cc(N2CCc3sccc3C2)cc(C)c1NC(=O)CC(C)(C)C ?
2.17

----------
experiment: Cmax in Sprague-Dawley rat at 1 mg/kg, iv by LC/MS/MS analysis; format: ADME, organism-based; set-up: dose 1 mg/kg, route intravenous; conditions: in vivo
parameter measured: Cmax

May I ask what Cmax has been recorded for Cc1cc(N2CCc3sccc3C2)cc(C)c1NC(=O)CC(C)(C)C ?
1060 ng/mL

----------
biological target: UniProtKB O43526; experiment: Channel opening activity at KCNQ2 (unknown origin) expressed in CHO cells assessed as conductivity (I/I0 ratio) at 10 uM by electrophysiological patch-clamp test; format: cell-based
Answer each item with its documented Ratio.
# output: bare number, no unit

May I ask what Ratio has been recorded for Cc1cc(N2CCc3sccc3C2)cc(C)c1NC(=O)CC(C)(C)C ?
1.63

May I ask what Ratio has been recorded for Cc1cc(N2CCc3ccsc3C2)cc(C)c1NC(=O)CC(C)(C)C ?
0.67

May I ask what Ratio has been recorded for Cc1cc(N2CCn3cccc3C2)cc(C)c1NC(=O)CC(C)(C)C ?
1.65

May I ask what Ratio has been recorded for CCOC(=O)Nc1ccc(NCc2ccc(F)cc2)cc1N [EZOGABINE] ?
2.12

----------
assay: Ratio of drug uptake in Kunming mouse brain to plasma at 15 mg/kg, ig measured after 2 hrs by LC/MS/MS analysis; format: ADME, organism-based; settings: po, read-out: BPR
parameter measured: Kp at 2 h
# output: bare number, no unit

May I ask what Kp at 2 h has been recorded for Cc1cc(N2CCc3sccc3C2)cc(C)c1NC(=O)CC(C)(C)C ?
0.09

----------
experiment: Ratio of drug uptake in Kunming mouse brain to plasma at 1.5 mg/kg, iv measured after 2 hrs by LC/MS/MS analysis; format: ADME, organism-based; conditions: read-out: BPR
parameter measured: Kp at 2 h
# output: bare number, no unit

May I ask what Kp at 2 h has been recorded for Cc1cc(N2CCc3sccc3C2)cc(C)c1NC(=O)CC(C)(C)C ?
0.16

----------
Answer each item with its documented V1/2.
molecular target: Potassium voltage-gated channel subfamily KQT member 2 (Homo sapiens, UniProt O43526); assay: Channel opening activity at KCNQ2 (unknown origin) expressed in CHO cells assessed as change in half activation potential at 10 uM by electrophysiological patch-clamp test; format: cell-based
Sequence (O43526 whole entry): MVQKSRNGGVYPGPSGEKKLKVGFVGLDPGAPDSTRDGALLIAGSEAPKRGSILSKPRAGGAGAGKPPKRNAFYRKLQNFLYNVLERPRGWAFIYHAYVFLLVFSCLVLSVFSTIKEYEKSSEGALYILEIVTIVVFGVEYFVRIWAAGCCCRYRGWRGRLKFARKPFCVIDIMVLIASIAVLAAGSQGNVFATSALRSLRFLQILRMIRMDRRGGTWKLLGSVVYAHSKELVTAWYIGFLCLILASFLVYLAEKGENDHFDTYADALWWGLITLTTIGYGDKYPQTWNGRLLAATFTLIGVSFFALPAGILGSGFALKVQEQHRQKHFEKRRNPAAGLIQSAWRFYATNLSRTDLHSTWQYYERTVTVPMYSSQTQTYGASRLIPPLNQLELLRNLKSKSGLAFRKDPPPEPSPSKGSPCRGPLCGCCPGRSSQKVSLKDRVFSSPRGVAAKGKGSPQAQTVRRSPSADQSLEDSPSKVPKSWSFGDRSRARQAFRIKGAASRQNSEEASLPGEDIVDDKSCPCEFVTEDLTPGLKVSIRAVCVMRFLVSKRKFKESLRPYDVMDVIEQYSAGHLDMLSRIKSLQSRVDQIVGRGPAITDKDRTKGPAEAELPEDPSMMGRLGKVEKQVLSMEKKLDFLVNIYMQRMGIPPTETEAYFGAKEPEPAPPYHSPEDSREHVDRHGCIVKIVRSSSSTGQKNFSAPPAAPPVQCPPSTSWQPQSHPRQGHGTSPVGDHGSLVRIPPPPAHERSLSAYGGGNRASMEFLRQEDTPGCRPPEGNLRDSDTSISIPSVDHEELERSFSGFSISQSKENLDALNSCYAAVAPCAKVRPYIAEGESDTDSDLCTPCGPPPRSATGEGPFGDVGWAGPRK
Lab note: write values as number then unit, every time.

Look up V1/2 with Potassium voltage-gated channel subfamily KQT member 2 (Homo sapiens, UniProt O43526) for this compound: CCOC(=O)Nc1ccc(NCc2ccc(F)cc2)cc1N
40 mV

Look up V1/2 with Potassium voltage-gated channel subfamily KQT member 2 (Homo sapiens, UniProt O43526) for this compound: Cc1cc(N2CCn3cccc3C2)cc(C)c1NC(=O)CC(C)(C)C
46.1 mV

Look up V1/2 with Potassium voltage-gated channel subfamily KQT member 2 (Homo sapiens, UniProt O43526) for this compound: Cc1cc(N2CCc3ccsc3C2)cc(C)c1NC(=O)CC(C)(C)C
53.3 mV

Look up V1/2 with Potassium voltage-gated channel subfamily KQT member 2 (Homo sapiens, UniProt O43526) for this compound: Cc1cc(N2CCc3sccc3C2)cc(C)c1NC(=O)CC(C)(C)C
66.2 mV

----------
experiment: Apparent volume of distribution in Sprague-Dawley rat at 1 mg/kg, iv by LC/MS/MS analysis; type: ADME, organism-based; conditions: in vivo, read-out: Vz
parameter measured: Vd (L/kg)
Answer with a number only, understood to be in L/kg.

May I ask what Vd has been recorded for Cc1cc(N2CCc3sccc3C2)cc(C)c1NC(=O)CC(C)(C)C ?
11.2

----------
experiment: Drug uptake in Kunming mouse brain at 15 mg/kg, ig measured after 2 hrs by LC/MS/MS analysis; assay type: ADME, organism-based; details: po, read-out: Drug uptake
parameter measured: concentration at 2 h (ng/g)
Answer with a number only, understood to be in ng/g.

May I ask what concentration at 2 h has been recorded for Cc1cc(N2CCc3sccc3C2)cc(C)c1NC(=O)CC(C)(C)C ?
4.96

----------
experiment: Drug uptake in Kunming mouse plasma at 15 mg/kg, ig measured after 5 mins by LC/MS/MS analysis; format: ADME, organism-based; conditions: po
parameter measured: concentration at 5 min (ng/mL)
Answer with a number only, understood to be in ng/mL.

May I ask what concentration at 5 min has been recorded for Cc1cc(N2CCc3sccc3C2)cc(C)c1NC(=O)CC(C)(C)C ?
201

----------
assay: Half life in Sprague-Dawley rat at 1 mg/kg, iv by LC/MS/MS analysis; format: ADME, organism-based; conditions: in vivo
parameter measured: half-life

May I ask what half-life has been recorded for Cc1cc(N2CCc3sccc3C2)cc(C)c1NC(=O)CC(C)(C)C ?
5.49 h

----------
assay: Drug uptake in Kunming mouse brain at 15 mg/kg, ig measured after 30 mins by LC/MS/MS analysis; format: ADME, organism-based; details: po, read-out: Drug uptake
parameter measured: concentration at 0.5 h (ng/g)
Answer with a number only, understood to be in ng/g.

May I ask what concentration at 0.5 h has been recorded for Cc1cc(N2CCc3sccc3C2)cc(C)c1NC(=O)CC(C)(C)C ?
30
